// cross-source set; read-out = pKi; system = Beta-secretase 2 (Homo sapiens, UniProt Q9Y5Z0)
pKi: −log10 of the molar value.

compound	pKi
Cc1cccc(CNCC(O)C(Cc2ccccc2)NC(=O)c2cccc(C(=O)N(C)Cc3nc(C)cs3)c2)c1 (stereo not shown)	< 6.30
Cc1nc(COC(=O)N[C@@H](CS(C)(=O)=O)C(=O)N[C@H](CC(C)C)[C@@H](O)C[C@@H](C)C(=O)N[C@@H](C(=O)NCC(C)C)C(C)C)co1	6.00 to 7.00
CCCN(CCC)C(=O)c1cccc(C(=O)NC(Cc2ccc(OC)cc2)C(O)CC(C)C(=O)NC(C(=O)NCC(C)C)C(C)C)c1 (stereo not shown)	> 6.39
CSC[C@H](NC(=O)OCc1coc(C)n1)C(=O)N[C@H](CC(C)C)[C@@H](O)C[C@@H](C)C(=O)N[C@@H](C(=O)NCC(C)C)C(C)C	6.00 to 7.00
Cc1cccc(CNCC(O)C(Cc2ccccc2)NC(=O)c2cc(C(=O)NC(C)c3ccccc3)cc(N(C)S(C)(=O)=O)c2)c1 (stereo not shown)	6.30 to 6.52
C[C@@]1(c2sc(-c3cncc(C#N)c3)cc2Cl)CS(=O)(=O)C2(CCCCC2)C(=N)N1	> 7.30
CC(C)CC(NC(=O)c1cc(C(=O)NC(C)c2ccccc2)cc(N(C)S(C)(=O)=O)c1)C(O)CC(C)C(=O)NC(C(=O)NCC1CCCN1C)C(C)C (stereo not shown)	5.70 to 6.39
